All values here come from patent US20080114007A1.

tgt: CSF-1R (Homo sapiens, UniProt P07333)
Sequence (P07333 20-972): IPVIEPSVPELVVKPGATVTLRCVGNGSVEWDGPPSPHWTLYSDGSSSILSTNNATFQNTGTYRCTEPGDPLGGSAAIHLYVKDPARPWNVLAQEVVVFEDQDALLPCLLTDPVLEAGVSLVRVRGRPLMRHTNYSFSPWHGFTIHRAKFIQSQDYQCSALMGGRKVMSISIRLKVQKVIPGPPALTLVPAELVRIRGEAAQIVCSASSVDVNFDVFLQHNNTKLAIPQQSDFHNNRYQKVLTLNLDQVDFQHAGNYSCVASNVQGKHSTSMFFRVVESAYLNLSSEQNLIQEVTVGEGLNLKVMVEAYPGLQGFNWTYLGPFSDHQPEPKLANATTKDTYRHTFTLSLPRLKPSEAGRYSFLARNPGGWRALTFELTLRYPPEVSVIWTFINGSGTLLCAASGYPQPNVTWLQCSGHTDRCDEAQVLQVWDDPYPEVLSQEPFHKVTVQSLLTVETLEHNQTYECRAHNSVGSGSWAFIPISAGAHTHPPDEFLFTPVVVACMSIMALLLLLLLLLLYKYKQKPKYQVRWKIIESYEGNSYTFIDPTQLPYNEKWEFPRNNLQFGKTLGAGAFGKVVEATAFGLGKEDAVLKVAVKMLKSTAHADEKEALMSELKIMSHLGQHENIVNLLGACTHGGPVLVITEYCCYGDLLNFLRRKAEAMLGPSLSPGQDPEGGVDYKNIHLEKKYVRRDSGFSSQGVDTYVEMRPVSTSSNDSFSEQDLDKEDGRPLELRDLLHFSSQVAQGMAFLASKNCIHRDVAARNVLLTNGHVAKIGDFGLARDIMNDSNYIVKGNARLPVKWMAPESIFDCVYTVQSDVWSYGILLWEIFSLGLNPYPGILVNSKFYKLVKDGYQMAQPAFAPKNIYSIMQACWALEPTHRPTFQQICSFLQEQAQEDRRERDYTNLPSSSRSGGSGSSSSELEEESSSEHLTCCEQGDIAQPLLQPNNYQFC
experiment summary: Peptide (non-phosphorylated) assay, fluorescence polarization competition immunoassay
Type: biochemical
measurement parameters: 0.7 nM CSF-1R, 308 μM SYEGNSYTFIDPTQ peptide, 1 mM ATP, 80 min; mean of at least three determinations; read-out: c-fms Peptide IC50
reported property: pIC50
Schema: pIC50 number; meaning minus log10 of the concentration expressed in molar units.

Below, each entry is followed by its recorded pIC50 result.
Give CSF-1R (Homo sapiens, UniProt P07333) pIC50 for the following compound: COCCNCCc1ccc(Nc2ncc3c(=O)c(C(=O)NOC)cn(-c4ccc5c(c4)CCC5)c3n2)cc1 [Cpd 98]
8.85

Give CSF-1R (Homo sapiens, UniProt P07333) pIC50 for the following compound: `CONC(=O)c1cn(-c2ccc3c(c2)CCC3)c2nc(Nc3ccc(CCN4CCCC(F)(F)C4)cc3)ncc2c1=O`
8.77

Give CSF-1R (Homo sapiens, UniProt P07333) pIC50 for the following compound: CONC(=O)c1cn(-c2ccc(Cl)cc2)c2nc(Nc3ccc(CCN4CCN(C)CC4)cc3)ncc2c1=O [Cpd 34]
8.42

Then there is this compound:
Give CSF-1R (Homo sapiens, UniProt P07333) pIC50 for the following compound: CONC(=O)c1cn(-c2ccc3c(c2)CCC3)c2nc(Nc3ccc(C4CCN(S(C)(=O)=O)CC4)cc3)ncc2c1=O [Cpd 76]
9.08

###

tgt: UniProtKB P07333
experiment summary: Peptide (non-phosphorylated) assay, fluorescence polarization competition immunoassay
Format: biochemical
measurement parameters: 0.7 nM CSF-1R, 308 μM SYEGNSYTFIDPTQ peptide, 1 mM ATP, 80 min; mean of at least three determinations; read-out: c-fms Peptide IC50
Measured IC50 by item
Give the number; nM is assumed, so skip it.

Below, each entry is followed by its recorded IC50 result.
Supply reported IC50 belonging to this molecule: CCONC(=O)c1cn(C2CCCCC2)c2nc(Nc3ccc(C4CCNCC4)cc3)ncc2c1=O [Cpd 27]
1.6

Supply reported IC50 belonging to this molecule: CN1CCN(CCc2ccc(Nc3ncc4c(=O)c(C(N)=O)cn(-c5ccc(F)c(Cl)c5)c4n3)cc2)CC1 [Cpd 3]
28

Supply reported IC50 belonging to this molecule: CCc1ccc(-n2cc(C(=O)NOC)c(=O)c3cnc(Nc4cccc(OC5CN6CCC5CC6)c4)nc32)cc1 (centres unmarked) [Cpd 247]
0.59

Supply reported IC50 belonging to this molecule: CONC(=O)c1cn(C2CCCCC2)c2nc(Nc3ccc(CCN4CCCC4=O)cc3)ncc2c1=O [Cpd 13]
1.6

Supply reported IC50 belonging to this molecule: CC(C)ONC(=O)c1cn(-c2ccc3c(c2)CCC3)c2nc(Nc3ccc(CCN4CCN(C)CC4)cc3)ncc2c1=O [Cpd 63]
0.52

Supply reported IC50 belonging to this molecule: O=C(NO)c1cn(C2CCCCC2)c2nc(Nc3ccc(CCN4CCCC4)cc3)ncc2c1=O [Cpd 17]
0.94

Supply reported IC50 belonging to this molecule: CONC(=O)c1cn(-c2ccc3c(c2)CCC3)c2nc(Nc3ccc(CCN4CCN(C(C)=O)CC4)cc3)ncc2c1=O [Cpd 145]
1.2

Continuing:
Supply reported IC50 belonging to this molecule: CONC(=O)c1cn(-c2ccc3c(c2)CCC3)c2nc(Nc3ccc(Cc4ccncc4)cc3)ncc2c1=O [Cpd 173]
0.77

###

tgt: CSF-1R (Homo sapiens, UniProt P07333)
experiment summary: Peptide (non-phosphorylated) assay, fluorescence polarization competition immunoassay
Assay type: biochemical
measurement parameters: 0.7 nM CSF-1R, 308 μM SYEGNSYTFIDPTQ peptide, 1 mM ATP, 80 min; mean of at least three determinations; read-out: c-fms Peptide IC50
reported property: IC50 (nM)
Give the number; nM is assumed, so skip it.

Below, each entry is followed by its recorded IC50 result.
Supply reported IC50 belonging to this compound: `CCc1ccc(-n2cc(C(=O)NOC)c(=O)c3cnc(Nc4cccc(N5CCOCC5)c4)nc32)cc1`
0.5

Supply reported IC50 belonging to this compound: `CONC(=O)c1cn(-c2ccc3c(c2)CCC3)c2nc(Nc3ccc(CCN4CCS(=O)(=O)CC4)cc3)ncc2c1=O`
1.2

Supply reported IC50 belonging to this compound: `CONC(=O)c1cn(-c2ccc3c(c2)CCC3)c2nc(Nc3ccc(C4CCNCC4)cc3)ncc2c1=O`
0.53

Continuing:
Supply reported IC50 belonging to this compound: CONC(=O)c1cn(-c2ccc3c(c2)CCC3)c2nc(Nc3ccc(C4CCCCN4C)cc3)ncc2c1=O (stereo not shown)
0.52

Supply reported IC50 belonging to this compound: `CONC(=O)c1cn(-c2ccc3c(c2)CCC3)c2nc(Nc3cccc(CCN4CCS(=O)(=O)CC4)c3)ncc2c1=O`
1

Supply reported IC50 belonging to this compound: CCc1ccc(-n2cc(C(=O)NOC)c(=O)c3cnc(Nc4ccc(OC5CN6CCC5CC6)cc4)nc32)cc1 (stereo not shown)
0.4

Supply reported IC50 belonging to this compound: `CCc1ccc(-n2cc(C(=O)NOC)c(=O)c3cnc(Nc4ccc(O[C@@H]5O[C@H](CO)[C@@H](O)[C@H](O)[C@@H]5O)cc4)nc32)cc1`
0.8

###

tgt: CSF-1R (Homo sapiens, UniProt P07333)
experiment summary: Peptide (non-phosphorylated) assay, fluorescence polarization competition immunoassay
Type: biochemical
measurement parameters: 0.7 nM CSF-1R, 308 μM SYEGNSYTFIDPTQ peptide, 1 mM ATP, 80 min; mean of at least three determinations; read-out: c-fms Peptide IC50
reported property: IC50 (nM)
Give the number; nM is assumed, so skip it.

Below, each entry is followed by its recorded IC50 result.
Supply reported IC50 belonging to this compound: `CCc1ccc(-n2cc(C(=O)NOC)c(=O)c3cnc(Nc4ccc(C5CCN(CCCO)CC5)cc4)nc32)cc1`
0.6

Supply reported IC50 belonging to this compound: `CCONC(=O)c1cn(C2CC2)c2nc(Nc3ccc(CCN4CCCC4)cc3)ncc2c1=O`
66

Then there is this compound:
Supply reported IC50 belonging to this compound: `CONC(=O)c1cn(C2CCCCC2)c2nc(Nc3ccc(C4CCNCC4)cc3)ncc2c1=O`
1.4

###

tgt: UniProt:P07333
experiment summary: Peptide (non-phosphorylated) assay, fluorescence polarization competition immunoassay
Type: biochemical
measurement parameters: 0.7 nM CSF-1R, 308 μM SYEGNSYTFIDPTQ peptide, 1 mM ATP, 80 min; mean of at least three determinations; read-out: c-fms Peptide IC50
Measured IC50 by item

Supply reported IC50 belonging to this compound: `CCc1ccc(-n2cc(C(=O)NOC)c(=O)c3cnc(Nc4ccc(CCN5CCCC5)cc4)nc32)cc1`
0.51 nM

###

tgt: UniProtKB P07333
experiment summary: Peptide (non-phosphorylated) assay, fluorescence polarization competition immunoassay
Type: biochemical
measurement parameters: 0.7 nM CSF-1R, 308 μM SYEGNSYTFIDPTQ peptide, 1 mM ATP, 80 min; mean of at least three determinations; read-out: c-fms Peptide IC50
reported property: pIC50
Schema: pIC50 number; meaning minus log10 of the concentration expressed in molar units.

Supply reported pIC50 belonging to this molecule: CCc1ccc(-n2cc(C(=O)NOC)c(=O)c3cnc(Nc4ccc(C5CCN(CCS(C)(=O)=O)CC5)cc4)nc32)cc1 [Cpd 96]
9.05

Continuing:
Supply reported pIC50 belonging to this molecule: CCc1ccc(-n2cc(C(=O)NOC)c(=O)c3cnc(Nc4ccc(CCN5CC(F)(F)C5)cc4)nc32)cc1 [Cpd 269]
8.82

Supply reported pIC50 belonging to this molecule: CONC(=O)c1cn(-c2ccc(OC(F)(F)F)cc2)c2nc(Nc3ccc(C4CCNCC4)cc3)ncc2c1=O [Cpd 176]
9.23

Supply reported pIC50 belonging to this molecule: COCCOc1ccc(Nc2ncc3c(=O)c(C(=O)NOC)cn(-c4ccc5c(c4)CCC5)c3n2)cc1OCCOC [Cpd 314]
9.30

###

Measured pIC50 by item
tgt: CSF-1R (Homo sapiens, UniProt P07333)
experiment summary: Peptide (non-phosphorylated) assay, fluorescence polarization competition immunoassay
Format: biochemical
measurement parameters: 0.7 nM CSF-1R, 308 μM SYEGNSYTFIDPTQ peptide, 1 mM ATP, 80 min; mean of at least three determinations; read-out: c-fms Peptide IC50
Schema: pIC50 number; meaning minus log10 of the concentration expressed in molar units.

Below, each entry is followed by its recorded pIC50 result.
Give CSF-1R (Homo sapiens, UniProt P07333) pIC50 for the following compound: `NC(=O)c1cn(-c2ccc3c(c2)CCC3)c2nc(Nc3ccc(N4CCC[C@H]4CO)cc3)ncc2c1=O`
8.51

Give CSF-1R (Homo sapiens, UniProt P07333) pIC50 for the following compound: `CONC(=O)c1cn(C2CCCC2)c2nc(Nc3ccc(CCN4CCCC4=O)cc3)ncc2c1=O`
8.70

Give CSF-1R (Homo sapiens, UniProt P07333) pIC50 for the following compound: `CONC(=O)c1cn(-c2ccc(C)c(C)c2)c2nc(Nc3ccc(CCN4CCCC4)cc3)ncc2c1=O`
9.20

Give CSF-1R (Homo sapiens, UniProt P07333) pIC50 for the following compound: `CCONC(=O)c1cn(-c2ccc3c(c2)CCC3)c2nc(Nc3ccc(S(=O)(=O)N(C)C)cc3)ncc2c1=O`
8.38

Give CSF-1R (Homo sapiens, UniProt P07333) pIC50 for the following compound: `CONC(=O)c1cn(-c2ccc3c(c2)CCC3)c2nc(Nc3ccc(CCNCCO)cc3)ncc2c1=O`
9.20

Continuing:
Give CSF-1R (Homo sapiens, UniProt P07333) pIC50 for the following compound: `CONC(=O)c1cn(-c2ccc3c(c2)CCC3)c2nc(Nc3ccc(C4=CCN(C)CC4)cc3)ncc2c1=O`
9.27

Give CSF-1R (Homo sapiens, UniProt P07333) pIC50 for the following compound: `CCONC(=O)c1cn(-c2ccc3c(c2)CCC3)c2nc(Nc3ccc(C4CCN(C(C)=O)CC4)cc3)ncc2c1=O`
8.77
